biological target: UniProt P41968; test: Agonist activity at human MC3R expressed in low doxycyclin-treated HEK293 cell membranes assessed as increase in cAMP production after 45 mins by HTRF method; assay type: functional, cell-based; parameters: concentration or dose not given beside the values
Sequence (P41968 whole entry): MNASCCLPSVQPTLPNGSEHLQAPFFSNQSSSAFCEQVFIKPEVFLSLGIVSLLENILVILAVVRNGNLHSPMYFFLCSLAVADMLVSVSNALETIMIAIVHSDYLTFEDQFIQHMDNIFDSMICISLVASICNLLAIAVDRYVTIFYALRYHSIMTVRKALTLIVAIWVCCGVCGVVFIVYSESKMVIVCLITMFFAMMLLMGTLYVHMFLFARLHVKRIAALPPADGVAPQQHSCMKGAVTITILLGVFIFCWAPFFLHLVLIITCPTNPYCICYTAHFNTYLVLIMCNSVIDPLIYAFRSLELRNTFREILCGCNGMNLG
Where a SMILES comes first, the peptide text is derived from it. Bridges are numbered along the chain shown (N, C = ends). [ ]: non-standard residue; d: D form. NMeW = CN[C@@H](Cc1c[nH]c2ccccc12)C(=O)O
reported.metric: Activity (%)
Enter your answer as a number in %; do not include the unit.

compound | Activity, %
CC[C@H](C)[C@@H]1NC(=O)[C@@H]2CCCN2C(=O)[C@H](Cc2c[nH]c3ccccc23)N(C)C(=O)[C@H](CCCNC(=N)N)N(C)C(=O)[C@@H](Cc2ccccc2)NC(=O)[C@H](Cc2cnc[nH]2)NC(=O)[C@H]([C@@H](C)O)NC(=O)[C@@H]2CSSC[C@H](NC1=O)C(=O)N[C@@H](Cc1ccccc1)C(=O)N1CCC[C@H]1C(=O)N[C@@H](CC(=O)O)C(=O)NCC(=O)N[C@@H](CCCNC(=N)N)C(=O)N2 | 100
CC[C@H](C)[C@@H]1NC(=O)[C@@H]2CCCN2C(=O)[C@H](Cc2c[nH]c3ccccc23)N(C)C(=O)[C@H](CCCNC(=N)N)NC(=O)[C@@H](Cc2ccccc2)NC(=O)[C@H](Cc2cnc[nH]2)NC(=O)[C@H]([C@@H](C)O)NC(=O)[C@@H]2CSSC[C@H](NC1=O)C(=O)N[C@@H](Cc1ccccc1)C(=O)N1CCC[C@H]1C(=O)N[C@@H](CC(=O)O)C(=O)NCC(=O)N[C@@H](CCCNC(=N)N)C(=O)N2 (cyclo(CFPDGRCTH[dF]R[NMeW]PI); disulfide 1-7) | 100

Shift focus to the following entry.
Find the recorded Activity belonging to CC[C@H](C)[C@@H]1NC(=O)[C@@H]2CCCN2C(=O)[C@H](Cc2c[nH]c3ccccc23)NC(=O)[C@H](CCCNC(=N)N)NC(=O)[C@@H](Cc2ccccc2)NC(=O)[C@H](Cc2cnc[nH]2)NC(=O)[C@H]([C@@H](C)O)NC(=O)[C@@H]2CSSC[C@H](NC1=O)C(=O)N[C@@H](Cc1ccccc1)C(=O)N1CCC[C@H]1C(=O)N[C@@H](CC(=O)O)C(=O)NCC(=O)N[C@@H](CCCNC(=N)N)C(=O)N2 and report it.
100

Just for reference, ChEMBL document CHEMBL4043303 is where these values come from.
